TARGET SYSTEM: inotocin R (L. niger)
EXPERIMENTAL PROTOCOL: Radioligand displacement of [3H] inotocin, inotocin receptor from L. niger
Design: species or system Lasius niger
STUDY CONDITIONS: saturation binding experiments
RECORDED METRIC: Kd (nM)
Expressed in nM, but write only the number.

If you can, please state the reported Kd value of [^3H] inotocin: tritiated inotocin radioligand, C[4,5-3H]LITNCPGR-NH2 as printed (tritium label; N-terminal Cys; C-terminal amide) .
0.9

---

Type: in vitro ADME, human
STUDY CONDITIONS: human serum, 37 °C, 24 h; read-out: peptide still present after 24 h
Bridge positions count the residues as written; N and C are the ends. Square brackets hold non-standard residues; d marks the D form. Peptide text beside a SMILES is read from it.
RECORDED METRIC: remaining at 24 h

If you can, please state the reported remaining at 24 h value of CC[C@H](C)[C@@H]1NC(=O)[C@H](CC(C)C)NC(=O)[C@@H](N)CSSC[C@@H](C(=O)N2CCC[C@H]2C(=O)N[C@H](CCCNC(=N)N)C(=O)NCC(N)=O)NC(=O)[C@H](CC(N)=O)NC(=O)[C@H]([C@@H](C)O)NC1=O [[D-Arg8]-inotocin] (H-CLITNCP[dR]G-NH2; disulfide 1-6) .
> 70%

---

Assay type: in vitro ADME, human
STUDY CONDITIONS: human serum, 37 °C, 100 μM peptide; read-out: half-life t½ (converted)
Bridge positions count the residues as written; N and C are the ends. Peptide text beside a SMILES is read from it.
Below is a list of entries, each paired with its recorded half-life value.
Expressed in h, but write only the number.

MOLECULE	half-life / h
NC(=O)CC[C@@H]1NC(=O)[C@H](Cc2ccccc2)NC(=O)[C@H](Cc2ccc(O)cc2)NC(=O)[C@@H](N)CSSC[C@@H](C(=O)N2CCC[C@H]2C(=O)N[C@@H](CCCN=C(N)N)C(=O)NCC(N)=O)NC(=O)[C@H](CC(N)=O)NC1=O [vasopressin, arginine-vasopressin]	1

Proceeding to the next molecule to report its half-life.
If you can, please state the reported half-life value of CC[C@H](C)[C@@H]1NC(=O)[C@H](CC(C)C)NC(=O)[C@@H](N)CSSC[C@@H](C(=O)N2CCC[C@H]2C(=O)N[C@@H](CCCNC(=N)N)C(=O)NCC(N)=O)NC(=O)[C@H](CC(N)=O)NC(=O)[C@H]([C@@H](C)O)NC1=O [inotocin] (H-CLITNCPRG-NH2; disulfide 1-6) .
2.8
